Provenance of the data: paper PMC9848300

Test system: SK-MEL-2
test.method.notes: NCI 60 antitumor screening (single dose / five doses)
Assay type: cell-based
condition.description: Homo sapiens; SK-MEL-2 (melanoma), single dose 10 μM; read-out: Growth inhibition percentage (GI %)
parameter: inhibition at 10 µM (%)
Answer with a number only, understood to be in %.

Data request: May I ask what inhibition at 10 µM has been recorded for Clc1cccc(/C=N/Nc2nc(N/N=C/c3cccc(Cl)c3Cl)nc(N3CCCCC3)n2)c1Cl ?
Data returned: 2.27

Data request: May I ask what inhibition at 10 µM has been recorded for Oc1ccc(/C=N/Nc2nc(N/N=C/c3ccc(O)c(O)c3)nc(N3CCCCC3)n2)cc1O ?
Data returned: 9.62

Data request: May I ask what inhibition at 10 µM has been recorded for Brc1ccccc1/C=N/Nc1nc(N/N=C/c2ccccc2Br)nc(N2CCCCC2)n1 ?
Data returned: -1.28

Data request: May I ask what inhibition at 10 µM has been recorded for O=C(NNc1nc(NNC(=O)c2ccccc2)nc(N2CCOCC2)n1)c1ccccc1 ?
Data returned: -13.4

Data request: May I ask what inhibition at 10 µM has been recorded for Oc1ccccc1/C=N/Nc1nc(N/N=C/c2ccccc2O)nc(N2CCCCC2)n1 ?
Data returned: 30.8

Data request: May I ask what inhibition at 10 µM has been recorded for Brc1ccccc1/C=N/Nc1nc(N/N=C/c2ccccc2Br)nc(N2CCOCC2)n1 ?
Data returned: 3.71

Data request: May I ask what inhibition at 10 µM has been recorded for O=C1Nc2ccc(Cl)cc2/C1=N\Nc1nc(N/N=C2/C(=O)Nc3ccc(Cl)cc32)nc(N2CCOCC2)n1 ?
Data returned: 34.7

###

Test system: MDA-MB-435
test.method.notes: NCI 60 antitumor screening (single dose / five doses)
Format: cell-based
condition.description: Homo sapiens, MDA-MB-435, read-out: Growth inhibition percentage (GI %)
Label t when inhibition at 10 µM >= 20%; otherwise f.

Data request: Does C/C(=N\Nc1nc(N/N=C(\C)c2ccc([N+](=O)[O-])cc2)nc(N2CCOCC2)n1)c1ccc([N+](=O)[O-])cc1 [compound 8a] have a reported inhibition at 10 µM of at least 20%?
Data returned: f

Data request: Does O=[N+]([O-])c1cccc(/C=N/Nc2nc(N/N=C/c3cccc([N+](=O)[O-])c3)nc(N3CCOCC3)n2)c1 [compound 6f] have a reported inhibition at 10 µM of at least 20%?
Data returned: f

Data request: Does O=[N+]([O-])c1cccc(/C=N/Nc2nc(N/N=C/c3cccc([N+](=O)[O-])c3)nc(N3CCCCC3)n2)c1 [compound 7f] have a reported inhibition at 10 µM of at least 20%?
Data returned: t

Data request: Does O=[N+]([O-])c1cc(/C=N/Nc2nc(N/N=C/c3ccc(Cl)c([N+](=O)[O-])c3)nc(N3CCCCC3)n2)ccc1Cl [compound 7i] have a reported inhibition at 10 µM of at least 20%?
Data returned: f

Data request: Does O=[N+]([O-])c1cc(/C=N/Nc2nc(N/N=C/c3ccc(Cl)c([N+](=O)[O-])c3)nc(N3CCOCC3)n2)ccc1Cl [compound 6i] have a reported inhibition at 10 µM of at least 20%?
Data returned: f

###

study.system: IDH2^R140Q (Homo sapiens, UniProt P48735, R140Q)
Sequence (P48735 40-452 R140Q): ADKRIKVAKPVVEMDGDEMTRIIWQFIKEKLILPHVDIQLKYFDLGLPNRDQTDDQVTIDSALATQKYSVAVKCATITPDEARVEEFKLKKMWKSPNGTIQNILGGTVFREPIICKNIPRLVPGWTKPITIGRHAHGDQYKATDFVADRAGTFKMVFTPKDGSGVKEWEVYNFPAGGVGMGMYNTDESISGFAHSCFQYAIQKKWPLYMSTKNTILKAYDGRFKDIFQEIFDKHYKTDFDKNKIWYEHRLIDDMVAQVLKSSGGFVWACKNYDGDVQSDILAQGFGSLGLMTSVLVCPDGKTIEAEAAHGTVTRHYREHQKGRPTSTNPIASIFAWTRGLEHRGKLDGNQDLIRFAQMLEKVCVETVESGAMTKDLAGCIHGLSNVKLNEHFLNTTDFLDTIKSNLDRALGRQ
test.method.notes: biochemical
parameter: IC50 (nM)
Answer with a number only, understood to be in nM.

Data request: May I ask what IC50 has been recorded for Fc1cccc(Cl)c1/C=N/Nc1nc(N/N=C/c2c(F)cccc2Cl)nc(N2CCOCC2)n1 [compound 6l] ?
Data returned: 158

Data request: May I ask what IC50 has been recorded for Brc1cccc(/C=N/Nc2nc(N/N=C/c3cccc(Br)c3)nc(N3CCCCC3)n2)c1 [compound 7c] ?
Data returned: 88.9

Data request: May I ask what IC50 has been recorded for Clc1cccc(/C=N/Nc2nc(N/N=C/c3cccc(Cl)c3)nc(N3CCOCC3)n2)c1 [compound 6d] ?
Data returned: 1870

Data request: May I ask what IC50 has been recorded for Oc1ccccc1/C=N/Nc1nc(N/N=C/c2ccccc2O)nc(N2CCCCC2)n1 [compound 7a] ?
Data returned: 130

Data request: May I ask what IC50 has been recorded for Fc1cccc(/C=N/Nc2nc(N/N=C/c3cccc(F)c3)nc(N3CCOCC3)n2)c1 [compound 6e] ?
Data returned: 67

Data request: May I ask what IC50 has been recorded for Brc1cccc(/C=N/Nc2nc(N/N=C/c3cccc(Br)c3)nc(N3CCOCC3)n2)c1 [compound 6c] ?
Data returned: 102

Data request: May I ask what IC50 has been recorded for CN(C)c1ccc(/C=N/Nc2nc(N/N=C/c3ccc(N(C)C)cc3)nc(N3CCCCC3)n2)cc1 [compound 7g] ?
Data returned: 505

Data request: May I ask what IC50 has been recorded for CN(C)c1ccc(/C=N/Nc2nc(N/N=C/c3ccc(N(C)C)cc3)nc(N3CCOCC3)n2)cc1 [compound 6g] ?
Data returned: 336

Data request: May I ask what IC50 has been recorded for Fc1cccc(/C=N/Nc2nc(N/N=C/c3cccc(F)c3)nc(N3CCCCC3)n2)c1 [compound 7e] ?
Data returned: 176
